# Tested on: V-C8 (BRCA2-deficient hamster cells)
# Assay remarks: normalised cell viability (fraction of plate median); higher = more viable cells (less toxic)
# Setup conditions: treatment time: 6 days; 5 µM
Counter-ions that a name gives are not always drawn. Over roughly 1,300 compounds, “normalised cell viability” has its median near 1; the lowest 2% begin near 0.14. The full list was thinned out, with the lowest values kept by preference.

{"Molecule": "CCN(CC)C(=O)/C(C#N)=C/c1cc(O)c(O)c([N+](=O)[O-])c1", "System under test": "V-C8 (BRCA2-deficient hamster cells)", "normalised cell viability": 1.06}
{"Molecule": "CC1=Nc2ccc(Cl)cc2S(=O)(=O)N1 [Diazoxide]", "System under test": "V-C8 (BRCA2-deficient hamster cells)", "normalised cell viability": 1.01}
{"Molecule": "CC[C@]12CCCN3CCc4c(n(c5ccccc45)C(=O)C1)[C@@H]32 [Eburnamonine (-)]", "System under test": "V-C8 (BRCA2-deficient hamster cells)", "normalised cell viability": 0.643}
{"Molecule": "CN(C)CCN1C(=O)c2ccccc2N(C)c2ccccc21 [Dibenzepine hydrochloride]", "System under test": "V-C8 (BRCA2-deficient hamster cells)", "normalised cell viability": 0.215}
{"Molecule": "CC(CCc1ccc(O)cc1)NCCc1ccc(O)c(O)c1 (centres undefined) [Dobutamine hydrochloride]", "System under test": "V-C8 (BRCA2-deficient hamster cells)", "normalised cell viability": 0.976}
{"Molecule": "CNCCC=C1c2ccccc2C=Cc2ccccc21", "System under test": "V-C8 (BRCA2-deficient hamster cells)", "normalised cell viability": 0.835}
{"Molecule": "C#CCN(C)CCCOc1ccc(Cl)cc1Cl [Clorgyline hydrochloride]", "System under test": "V-C8 (BRCA2-deficient hamster cells)", "normalised cell viability": 1.02}
{"Molecule": "C[C@@H]1NC(=O)NC1=O", "System under test": "V-C8 (BRCA2-deficient hamster cells)", "normalised cell viability": 1.07}
{"Molecule": "Clc1ccccc1CN1CCc2sccc2C1 [Ticlopidine hydrochloride]", "System under test": "V-C8 (BRCA2-deficient hamster cells)", "normalised cell viability": 1.08}
{"Molecule": "O=C(O)CCNC(=O)c1ccc(/N=N/c2ccc(O)c(C(=O)O)c2)cc1 [Balsalazide Sodium]", "System under test": "V-C8 (BRCA2-deficient hamster cells)", "normalised cell viability": 0.953}
{"Molecule": "CC[C@H](C)[C@H](N)C1=N[C@H](C(=O)N[C@@H](CC(C)C)C(=O)N[C@H](CCC(=O)O)C(=O)N[C@H](C(=O)N[C@H]2CCCCNC(=O)[C@H](CC(N)=O)NC(=O)[C@@H](CC(=O)O)NC(=O)[C@H](Cc3cnc[nH]3)NC(=O)[C@@H](Cc3ccccc3)NC(=O)[C@H]([C@@H](C)CC)NC(=O)[C@@H](CCCN)NC2=O)[C@@H](C)CC)CS1", "System under test": "V-C8 (BRCA2-deficient hamster cells)", "normalised cell viability": 0.983}
{"Molecule": "CN(C)[C@@H]1C(O)=C(C(N)=O)C(=O)[C@@]2(O)C(O)=C3C(=O)c4c(O)cccc4[C@@](C)(O)[C@H]3[C@H](O)[C@@H]12 [Oxytetracycline dihydrate]", "System under test": "V-C8 (BRCA2-deficient hamster cells)", "normalised cell viability": 0.945}
{"Molecule": "CC1(C)S[C@@H]2[C@H](NC(=O)[C@H](N)c3ccccc3)C(=O)N2[C@H]1C(=O)OC1OC(=O)c2ccccc21 (some centres undefined) [Talampicillin hydrochloride]", "System under test": "V-C8 (BRCA2-deficient hamster cells)", "normalised cell viability": 1.02}
{"Molecule": "CC(C)(C)C(=O)OCOC(=O)[C@@H]1N2C(=O)[C@@H](/N=C/N3CCCCCC3)[C@H]2SC1(C)C [Pivmecillinam hydrochloride]", "System under test": "V-C8 (BRCA2-deficient hamster cells)", "normalised cell viability": 1.01}

Ref: the supplement of paper PMC6609913
